The values you see were collected from ChEMBL document CHEMBL1157181.

test: Dissociation constant, pKa of the compound; format: physicochemical
reportedMetric: pKa

{"compound": "COC1=C(O)[C@@H]([C@@H](O)CO)OC1=O", "observedResult": 3.23}
{"compound": "O=C1OC(C(O)CO)C(OCCCOc2no[n+]([O-])c2S(=O)(=O)c2ccccc2)=C1O (centres undefined)", "observedResult": 7.62}

[I] O=C1OC(C(O)CO)C(OCCCCCCO[N+](=O)[O-])=C1O (centres undefined)
[II] O=C1OC(C(O)CO)C(O)=C1OCCCCCCO[N+](=O)[O-] (centres undefined)
IN: Which of the two gives a bigger number for pKa: I or II ? Choose, then provide that item's label.
OUT: I
